# experiment: BSK_3C_Vis: BioMAP Diversity Plus: 3C Assay for Morphology Visualization (AID 2283025);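 further: fitted both ways so gain or loss versus DMSO counts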
# cond: primary human endothelial cells (HUVEC)
Activity calls are given as the source filed them. How the source made its calls: active means hit-call score of the fitted dose curve at least 0.9, where 1 is the maximum; inactive means score below 0.9.
Write down one outcome, taken from true (active), false (inactive)

compound	label
CC(C)=CC1C(C(=O)OCc2cccc(Oc3ccccc3)c2)C1(C)C (stereo not drawn)	true

Any idea what this test logged for O=S(=O)(C(Cl)(Cl)Cl)C(Cl)(Cl)Cl ? true

I would be grateful if you could indicate the recorded call for CC(C=O)Cc1ccc2c(c1)OCO2 (stereo not drawn) . false

I would be grateful if you could indicate the recorded call for C=CC(Cl)CCl (stereo not drawn) . false

Field: outcome | Entry: CCOC(=O)CCN(SN(C)C(=O)Oc1cccc2c1OC(C)(C)C2)C(C)C true

Test call, this compound: CCOP(=O)(OCC)SCCSCC false

====

# system_tested: Estrogen receptor (Homo sapiens) (UniProt P03372)
# Sequence (P03372 whole entry, looked up): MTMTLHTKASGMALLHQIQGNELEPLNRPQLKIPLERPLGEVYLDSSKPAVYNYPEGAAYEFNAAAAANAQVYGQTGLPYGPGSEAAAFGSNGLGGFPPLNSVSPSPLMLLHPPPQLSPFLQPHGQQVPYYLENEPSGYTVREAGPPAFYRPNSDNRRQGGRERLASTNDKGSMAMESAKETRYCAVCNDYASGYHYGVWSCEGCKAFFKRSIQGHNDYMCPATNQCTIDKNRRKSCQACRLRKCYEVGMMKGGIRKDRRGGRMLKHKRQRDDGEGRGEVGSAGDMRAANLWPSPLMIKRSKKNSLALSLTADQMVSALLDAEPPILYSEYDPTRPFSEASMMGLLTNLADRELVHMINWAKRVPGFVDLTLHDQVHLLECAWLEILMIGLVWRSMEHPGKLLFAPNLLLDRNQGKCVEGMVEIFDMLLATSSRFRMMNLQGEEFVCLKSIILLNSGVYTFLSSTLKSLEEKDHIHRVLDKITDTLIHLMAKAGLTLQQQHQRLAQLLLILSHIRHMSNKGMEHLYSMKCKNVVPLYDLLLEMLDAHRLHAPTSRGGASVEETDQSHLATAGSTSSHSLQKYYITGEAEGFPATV
# experiment: ATG_ERa_TRANS: Attagene TRANS-FACTORIAL HepG2 Assay for human Estrogen Receptor alpha (ERa) (AID 2282970)
# cond: HepG2 Attagene TRANS ERa GAL4 reporter, mRNA
Inconclusive results are not listed. The source made the active and inactive calls. How the source made its calls: active means hit-call score of the fitted dose curve at least 0.9, where 1 is the maximum; inconclusive means response in the unintended direction; inactive means score below 0.9.
Result category, one only: Yes for active, No for inactive

compound	label
O=[N+]([O-])c1ccc(Nc2ccccc2)cc1	No
Cc1cc(C(F)(C(F)(F)F)C(F)(F)F)ccc1NC(=O)c1cccc(I)c1C(=O)NC(C)(C)CS(C)(=O)=O	No
CCC(C)(C#N)N=NC(C)(C#N)CC (stereo not given)	No
Cc1c([N+](=O)[O-])c(C)c([N+](=O)[O-])c(C(C)(C)C)c1[N+](=O)[O-]	Yes
CCCCN(CCCCO)N=O	Yes
O=C(O)c1cc(I)cc(I)c1I	No
CN(C)c1ccc(N=O)cc1	No
O=S(=O)(C(Cl)(Cl)Cl)C(Cl)(Cl)Cl	No
O=NN1CCCCCC1	No
Cc1cc(-c2cc(C)c(N)c(C)c2)cc(C)c1N	No

State the result this test recorded for CC(=O)C(F)(F)C(F)(F)F . No

State the result this test recorded for O=S(=O)(Oc1ccc(Cl)cc1)c1ccc(Cl)cc1 . Yes

Field: outcome | Entry: C=CC(=O)OCC(COC(=O)C=C)(COC(=O)C=C)COC(=O)C=C No

====

# Read-out: Collagen IV, COL4A1 (gene 1282)
# experiment: BSK_MyoF_CollagenIV: BioMAP Diversity Plus: MyoF Assay for Collagen IV Biomarker Activity (AID 2284247)
# cond: primary human lung fibroblasts
# Protocol: BSK_MyoF is a cell-based, multiplexed-readout assay that uses lung fibroblasts, […], with measurements taken at 24 hours after chemical dosing in a microplate: 96-well plate.BSK_MyoF_CollagenIV is an assay component measured in the BSK_MyoF assay. […] The levels of cell surface (or secreted, indicated by the prefix "s") biomarker endpoints were measured by ELISA. […] Plates were read after 6 h.
Calls of active or inactive are those of the source. The calls were made as follows: active = hit-call score of the fitted dose curve at least 0.9, where 1 is the maximum; inactive = score below 0.9.
value_kind: outcome

compound	value_kind	meas_value
COCC(=O)N(c1c(C)cccc1C)[C@H](C)C(=O)OC	outcome	inactive
CC(C)(COCC1CO1)COCC1CO1 (stereo not drawn)	outcome	inactive
OC(Cc1ccccc1Cl)(Cn1cncn1)C1(Cl)CC1 (stereo not drawn)	outcome	inactive

====

# experiment: BSK_BT_Bcell_Proliferation: Viability Assessment in the BioMAP Diversity Plus: BT Assay for B cell Proliferation (AID 2284227)
# cond: primary human B cells with PBMC
Active and inactive are the calls of the source. The calls were made as follows: active = hit-call score of the fitted dose curve at least 0.9, where 1 is the maximum; inactive = score below 0.9.
Pick one and only one: TRUE (active), FALSE (inactive)

These solved cases illustrate the format of a correct answer.
compound	label
CCCCN(CCCC)C(=S)[S-].CCCCN(CCCC)C(=S)[S-].[Ni+2]	FALSE
CCC(C)(C#N)N=NC(C)(C#N)CC (stereo not drawn)	FALSE
Cc1c([N+](=O)[O-])c(C)c([N+](=O)[O-])c(C(C)(C)C)c1[N+](=O)[O-]	FALSE
Cc1cc(Cl)ccc1OC(C)C(=O)O (stereo not drawn)	FALSE
CCOP(=O)(OCC)OC(=CCl)c1ccc(Cl)cc1Cl	FALSE

Tell me the recorded outcome of this test for Cc1ccc(OP(=O)(Oc2ccc(C)cc2C)Oc2ccc(C)cc2C)c(C)c1 . TRUE

Test call for this compound, please: c1ccc2sc(SNC3CCCCC3)nc2c1 TRUE

Outcome? Cc1cc(Cl)ccc1N FALSE
